biological target: Candida albicans (Cat. No. 10231, ATCC) whole cells (Candida albicans); assay: converted from Table 20a with a Fab of about 50 kDa
Outcome measure: affinity (converted to molar) (nM)
Give the number; nM is assumed, so skip it.

Consider the worked cases shown below.
>  <Binder>
A4F10 Fab (Fab, V domains shown) VH: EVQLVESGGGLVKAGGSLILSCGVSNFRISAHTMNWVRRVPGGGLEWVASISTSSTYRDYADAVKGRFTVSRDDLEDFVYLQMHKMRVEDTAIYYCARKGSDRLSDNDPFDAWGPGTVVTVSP VL: GVVMTQSPSTLSASVGDTITITCRASQSIETWLAWYQQKPGKAPKLLIYKASTLKTGVPSRFSGSGSGTEFTLTISGLQFDDFATYHCQHYTDHYGATFGQGTRVEIKR

>  <affinity (converted to molar) / nM>
20

$$$$
>  <Binder>
A1G7 Fab (Fab, V domains shown) VH: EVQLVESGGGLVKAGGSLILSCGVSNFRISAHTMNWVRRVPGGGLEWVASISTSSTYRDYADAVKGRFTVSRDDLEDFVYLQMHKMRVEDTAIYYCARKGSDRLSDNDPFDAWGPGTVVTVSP VL: GVVMTQSPSTLSASVGDTITITCRASQSIETWLAWYQQKPGKAPKLLIYKASTLKTGVPSRFSGSGSGTEFTLTISGLQFDDFATYHCQHYTDHRGATFGQGTRVEIKR

>  <affinity (converted to molar) / nM>
30

$$$$

Now look at this entry.
Reported affinity (converted to molar) for P2H12 Fab (Fab, V domains shown) VH: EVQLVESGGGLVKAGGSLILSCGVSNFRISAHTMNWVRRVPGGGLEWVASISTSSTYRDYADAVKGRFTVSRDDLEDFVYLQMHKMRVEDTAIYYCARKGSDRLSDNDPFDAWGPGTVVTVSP VL: GVVMTQSPSTLSASVGDTITITCRASQSIETWLAWYQQKPGKAPKLLIYKASTLKTGVPSRFSGSGSGTEFTLTISGLQFDDFATYHCQHYTDHHGATFGQGTRVEIKR : what is it?
40
